B1: POU domain, class 3, transcription factor 4, residues 280 to 335; numbered along this chain, P49335 (parent)
chain: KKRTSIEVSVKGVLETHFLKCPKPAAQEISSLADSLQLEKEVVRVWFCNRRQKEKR

# Variants of: B1
# measurement_notes: abundance fitness (aPCA) (normalised: wild type 0, dead -1); higher = more abundant; growth selection in yeast, the domain comes from the species named
# recorded_conditions: Homo sapiens
Measured abundance fitness, listed per entry for reference.
attribute_measured: abundance fitness

biosequence	attribute_measured	assay_value
KKRTSIEVSVKGVLETHFLKCPKPAAQTISSLADSLQLEKEVVRVWFCNRRQKEKR	abundance fitness	-0.411
KKRTSIEVSVKGVLETHFLKCPKPAAQEISSLADSLQLEKEVVRVWFCKRRQKEKR	abundance fitness	-0.119
KKCTSIEVSVKGVLETHFLKCPKPAAQEISSLADSLQLEKEVVRVWFCNRRQKEKR	abundance fitness	0.174
KKRTSIEVSVKGVLETHFLKCPKPAAQEIGSLADSLQLEKEVVRVWFCNRRQKEKR	abundance fitness	-0.209
KKRTSIEVSVKGVLETHFWKCPKPAAQEISSLADSLQLEKEVVRVWFCNRRQKEKR	abundance fitness	-0.624
KKRTSIEVSVKGVLETHFLKCPKPAAQEISSLADSLQLEKEVVRVWFCNARQKEKR	abundance fitness	-0.582
KKRTSIEVSVKGVLETHFLKCPKPAAQEISSLADILQLEKEVVRVWFCNRRQKEKR	abundance fitness	-0.373
KKRTSIEVSVKGVLETGFLKCPKPAAQEISSLADSLQLEKEVVRVWFCNRRQKEKR	abundance fitness	-0.662
KKRTSIEVSVKGVLETHFLKNPKPAAQEISSLADSLQLEKEVVRVWFCNRRQKEKR	abundance fitness	0.31
KKRTSIEVSVKGVLETHFLKCPKPAAQPISSLADSLQLEKEVVRVWFCNRRQKEKR	abundance fitness	-0.352
KKRTSIEVSVKGVLETHFLKCPKPAAQEISSLADSLQLEKEVVRVWFANRRQKEKR	abundance fitness	-0.051
KKRTSIEVSVKGVLETHFLKCPKPAAREISSLADSLQLEKEVVRVWFCNRRQKEKR	abundance fitness	-0.054
KKRTSIEVSVKGVLETHFLKCPKPAAQEISSLADSLQLEKIVVRVWFCNRRQKEKR	abundance fitness	-0.828
KKRTSIEVSRKGVLETHFLKCPKPAAQEISSLADSLQLEKEVVRVWFCNRRQKEKR	abundance fitness	-0.731
KKRTSIEVSVKGVLETHFLKCPKPAAQEISSLADSLQLEKEVVRVWFCNRRQKEDR	abundance fitness	-0.223
KKRTSIEVSVKGVLETHFLKCPKPAAQSISSLADSLQLEKEVVRVWFCNRRQKEKR	abundance fitness	-0.692
KKRTSIEVSVKGVLEEHFLKCPKPAAQEISSLADSLQLEKEVVRVWFCNRRQKEKR	abundance fitness	0.368
KKRTSIEVSVKGVLETHFLKCPKPAYQEISSLADSLQLEKEVVRVWFCNRRQKEKR	abundance fitness	-0.254
KKRTSIEVDVKGVLETHFLKCPKPAAQEISSLADSLQLEKEVVRVWFCNRRQKEKR	abundance fitness	0.539
KKRTSIEVSVKGVLETHFLKCPKPAAQEISSLADSLVLEKEVVRVWFCNRRQKEKR	abundance fitness	-0.923
KKRTSIEVSVKGDLETHFLKCPKPAAQEISSLADSLQLEKEVVRVWFCNRRQKEKR	abundance fitness	-0.518
KKRTSIEVSVKGVLETHFLKCPKPAAQEISSLADSLQLEKEVVRVWFCNRRCKEKR	abundance fitness	-0.291
KKRTSIEVSVKGVLETHFLKCPKPAAKEISSLADSLQLEKEVVRVWFCNRRQKEKR	abundance fitness	-0.157
KKRTSIEVSVKAVLETHFLKCPKPAAQEISSLADSLQLEKEVVRVWFCNRRQKEKR	abundance fitness	-0.177
KKRTSIETSVKGVLETHFLKCPKPAAQEISSLADSLQLEKEVVRVWFCNRRQKEKR	abundance fitness	0.307
KKRTSIEVSVKGVLETHFLKCPKPAAQEISSLADSLQLEKEVVRVWFCWRRQKEKR	abundance fitness	-0.885
KKRTSIEVSVKGVVETHFLKCPKPAAQEISSLADSLQLEKEVVRVWFCNRRQKEKR	abundance fitness	-0.788
KKRTSIEVSVKGVLETHFLKCPKPAAQEISSLADSLQLEKEFVRVWFCNRRQKEKR	abundance fitness	-0.318
KKRTSIEVSVKGVLETHFDKCPKPAAQEISSLADSLQLEKEVVRVWFCNRRQKEKR	abundance fitness	-0.363
KKRTSIEVSVKGVLETHFLKCPKPAAQEISSSADSLQLEKEVVRVWFCNRRQKEKR	abundance fitness	-0.732
KKRTSIEVSVKGVLETHFLKCPKPAAQEISKLADSLQLEKEVVRVWFCNRRQKEKR	abundance fitness	0.022
KKYTSIEVSVKGVLETHFLKCPKPAAQEISSLADSLQLEKEVVRVWFCNRRQKEKR	abundance fitness	0.069
KKRRSIEVSVKGVLETHFLKCPKPAAQEISSLADSLQLEKEVVRVWFCNRRQKEKR	abundance fitness	-0.419
KKRTSIEVSVKGVLEPHFLKCPKPAAQEISSLADSLQLEKEVVRVWFCNRRQKEKR	abundance fitness	-0.839
KKRTSIEVSVKGVLETHFLKCPKPAAQEISSLADSLQAEKEVVRVWFCNRRQKEKR	abundance fitness	-0.744
KKRTSIEVSVKGVLETHFLKCPKPAAQEISSLADELQLEKEVVRVWFCNRRQKEKR	abundance fitness	0.115
KKRTCIEVSVKGVLETHFLKCPKPAAQEISSLADSLQLEKEVVRVWFCNRRQKEKR	abundance fitness	0.2
KKRTSIEVSVKGVLETHFLKCPKPAAQEISSLADSLQLEKEVVRVWRCNRRQKEKR	abundance fitness	-0.677
KKRTSIEVSVKGVLETSFLKCPKPAAQEISSLADSLQLEKEVVRVWFCNRRQKEKR	abundance fitness	-0.262
KKRTSNEVSVKGVLETHFLKCPKPAAQEISSLADSLQLEKEVVRVWFCNRRQKEKR	abundance fitness	-0.249
KKRTSTEVSVKGVLETHFLKCPKPAAQEISSLADSLQLEKEVVRVWFCNRRQKEKR	abundance fitness	-0.201
KKRTSIEVSVKGVLETHFLKCPKPAAQEISSLADSLQLEKEVVRVWFCNRRQKESR	abundance fitness	-0.368
KKRTSIEVSVKGVLETHFLKCPKPAAQEISSLADSEQLEKEVVRVWFCNRRQKEKR	abundance fitness	-0.781
KKRTSIEVSVKGVLETHFLKCPKPAAQEISSLADSLQLEKEVVRVWFCNYRQKEKR	abundance fitness	-0.559
KKRTSIPVSVKGVLETHFLKCPKPAAQEISSLADSLQLEKEVVRVWFCNRRQKEKR	abundance fitness	0.607
KKRTSIEVSVKGVLETHFLRCPKPAAQEISSLADSLQLEKEVVRVWFCNRRQKEKR	abundance fitness	-0.386
KKRTSIEVSVKGVLETAFLKCPKPAAQEISSLADSLQLEKEVVRVWFCNRRQKEKR	abundance fitness	0.085
KKRTSIEVSVKGVLETHFGKCPKPAAQEISSLADSLQLEKEVVRVWFCNRRQKEKR	abundance fitness	-0.504
KKRTSIEVSVKGVLETHFLKCPKPAAQEISQLADSLQLEKEVVRVWFCNRRQKEKR	abundance fitness	-0.031
KKRTSIEVSVKGVLETHFLKCPKPAAQEISSLADSLQLEKEVARVWFCNRRQKEKR	abundance fitness	-0.692
KKRTSIEVSVKGVLETHFLKCWKPAAQEISSLADSLQLEKEVVRVWFCNRRQKEKR	abundance fitness	-0.166
KKRTSIEVSVKGVLETHFLKCPKPAAQEISALADSLQLEKEVVRVWFCNRRQKEKR	abundance fitness	0.006
KKRTSIEVSVKGVLETHFLKCPKPAAQWISSLADSLQLEKEVVRVWFCNRRQKEKR	abundance fitness	-0.484
KKRTSIEVSVKGVLETHFLKCPKPAAQEISSLADSLQLEKEVVRVWFCNRRQQEKR	abundance fitness	-0.258
KKRTSIEVSVKGVLETHFLKCPKPAAQGISSLADSLQLEKEVVRVWFCNRRQKEKR	abundance fitness	-0.886
KKRTSIEVSVKGVLETHFLKCPKPAAQEISSLADSLQLEKFVVRVWFCNRRQKEKR	abundance fitness	-0.841
KKRTSIEVSVKGVLETHFLKCPKPAAQEISSLADSLQLEKEVVRFWFCNRRQKEKR	abundance fitness	-0.517
KKRTSIEVSVKGVLETHFLKCPKPAAQEISSLADSLQQEKEVVRVWFCNRRQKEKR	abundance fitness	-0.89
KKRTSIEVSVKGVLETHFLKCPKPAAQEISSLADSLQLEKEVERVWFCNRRQKEKR	abundance fitness	-0.815
KKRTSIEVSVKGVLETHFLKCPKPAAQEISSLADSLQLEKEVVRVWFTNRRQKEKR	abundance fitness	-0.187
KKRTQIEVSVKGVLETHFLKCPKPAAQEISSLADSLQLEKEVVRVWFCNRRQKEKR	abundance fitness	0.268
KKRTSIEVSVKGVLETHFLKCPKPAAQEIHSLADSLQLEKEVVRVWFCNRRQKEKR	abundance fitness	-0.706
KKRTSIEVSVKGVLETHFLKCPKPAAQIISSLADSLQLEKEVVRVWFCNRRQKEKR	abundance fitness	-0.47
KKRTSIEVAVKGVLETHFLKCPKPAAQEISSLADSLQLEKEVVRVWFCNRRQKEKR	abundance fitness	-0.056
KKRTSIEVSVKGVLETHFLKCPKPAAQEISSLADSLQLEKEVVRVWFCNPRQKEKR	abundance fitness	-0.87
KKRTSIEVSVKGVLETHFLKCPKPAAQEISSLADSLHLEKEVVRVWFCNRRQKEKR	abundance fitness	0.104
KKRTSIEVSVKGVLETHFLKCPKPAAQEISSLARSLQLEKEVVRVWFCNRRQKEKR	abundance fitness	0.019
KKRTSIEVSVKGVLETHVLKCPKPAAQEISSLADSLQLEKEVVRVWFCNRRQKEKR	abundance fitness	-0.56
KKRTSIEVSVKGVLETHFLKCPKPAAQEISSLADSLQLEKEVVRVWQCNRRQKEKR	abundance fitness	-0.899
KKRTSIEVSVKGVLETHFLKCPKPAAQEISILADSLQLEKEVVRVWFCNRRQKEKR	abundance fitness	0.004
KKRTSIEVSVKGVLETHFLKCPKPAAQEISSLADSLQLEKEVVRVGFCNRRQKEKR	abundance fitness	-0.639
KKRTSIEVSVKGVQETHFLKCPKPAAQEISSLADSLQLEKEVVRVWFCNRRQKEKR	abundance fitness	-0.953
KKRTSIEVSVKGVLETHFLKCPKPAAQEISSLADSLQLMKEVVRVWFCNRRQKEKR	abundance fitness	-0.478
KKRTSIEVSVKGVLETHFLKCPKPAAQEINSLADSLQLEKEVVRVWFCNRRQKEKR	abundance fitness	-0.196
KKRTSIEVSVKGVLETHFLKCMKPAAQEISSLADSLQLEKEVVRVWFCNRRQKEKR	abundance fitness	-0.553
KKRTSIEVSVKGVLETHFLKCPKPAVQEISSLADSLQLEKEVVRVWFCNRRQKEKR	abundance fitness	-0.254
KKRTSIEVSVKGVLETHFLKCPKPAAQEISSLADSLQLEKEVVPVWFCNRRQKEKR	abundance fitness	-0.865
KKRTIIEVSVKGVLETHFLKCPKPAAQEISSLADSLQLEKEVVRVWFCNRRQKEKR	abundance fitness	-0.107
KKRTSIEVSVKGVLETHFLKCPKPAAQEISSLADSLQLEKEVVRVWFCNRRDKEKR	abundance fitness	0.231
KKRTSIEVSVKGVLETHFLKCPKPAAQEISSLADSLQLEKEVVRVWFCDRRQKEKR	abundance fitness	0
KKRTSIEVSVKGVLETHFLKCPKPAAQEISSLADKLQLEKEVVRVWFCNRRQKEKR	abundance fitness	0.257
KKRTSIEVSVKGVLETHFLKCPKPAAQEISSLADSLQLEKEVVRVWFENRRQKEKR	abundance fitness	0.549
KKRTSIEVSVKGVLETHFLKCPKPAAQEISSLADSLQLEKEVVRVWFCNRRQKEER	abundance fitness	-0.259
KKRTSIEVSVKGVLETHFLKCPKPAAQEISSLADSLQLEKEVVRVWCCNRRQKEKR	abundance fitness	-0.792
KKRTSIEVSSKGVLETHFLKCPKPAAQEISSLADSLQLEKEVVRVWFCNRRQKEKR	abundance fitness	-0.587
KKRTSIEVSVKGVLETLFLKCPKPAAQEISSLADSLQLEKEVVRVWFCNRRQKEKR	abundance fitness	-0.401
KKRTEIEVSVKGVLETHFLKCPKPAAQEISSLADSLQLEKEVVRVWFCNRRQKEKR	abundance fitness	0.565
KKKTSIEVSVKGVLETHFLKCPKPAAQEISSLADSLQLEKEVVRVWFCNRRQKEKR	abundance fitness	0.03
KKRGSIEVSVKGVLETHFLKCPKPAAQEISSLADSLQLEKEVVRVWFCNRRQKEKR	abundance fitness	-0.189
KKRTSIEVSVKGVLETHFLKCPKPAAQEISSLADSLQLEKEVVRVWFCNRLQKEKR	abundance fitness	-0.305
KKRTSIEVSVKGVLETHFLKCPKPAAQEISSLADSLQLEKEVPRVWFCNRRQKEKR	abundance fitness	-0.774
